// provenance: paper PMC5540273

Entries and their measured %Inh follow.
# System: ANKK1
# run-parameters: concentration: 1 μM,replicates: in singlicate; n = 1;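 note: KINOMEscan kinase panel screen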
Return type: number; implicit unit %.

# compound, %Inh [%]
rows = [
    ("Cc1n[nH]c2cc(Nc3ccnc(Nc4cccc(CN5CCOCC5)c4)n3)ccc12", 17),
]

input: Suppose we examine the compound COc1cc2ncn(-c3cc(OCC4CCCCC4)c(C(N)=O)s3)c2cc1OC ; what %Inh value has been reported?
output: 14

input: Suppose we examine the compound CS(=O)(=O)Nc1ccc(-c2ccnc3[nH]ccc23)cc1 ; what %Inh value has been reported?
output: 27

input: Suppose we examine the compound CCNCC(Cc1ccccc1)NC(=O)c1cc(Br)c(-c2ccnc3[nH]ccc23)s1.Cl.Cl (stereo not drawn) ; what %Inh value has been reported?
output: 8

input: Suppose we examine the compound OCCn1cc(-c2cnc3nnn(Cc4ccc5ncccc5c4)c3n2)cn1 ; what %Inh value has been reported?
output: 0

input: Suppose we examine the compound Cc1ccc2c(-c3ccnc(Nc4ccc(C(F)(F)F)cc4)n3)cnn2n1 ; what %Inh value has been reported?
output: 0

input: Suppose we examine the compound COc1cccc(C2=C(Nc3cccc(Cl)c3)C(=O)NC2=O)c1 ; what %Inh value has been reported?
output: 0

input: Suppose we examine the compound NC(=O)Nc1sc(-c2ccc(F)cc2)cc1C(N)=O ; what %Inh value has been reported?
output: 86

input: Suppose we examine the compound CCCC(=O)Nc1n[nH]c2ncccc12 ; what %Inh value has been reported?
output: 13

input: Suppose we examine the compound CC(C)c1nc(-c2cccc(NS(=O)(=O)c3ccccc3)c2)c(-c2ccnc(Nc3ccc4c(c3)CN(C)CC4)n2)s1 ; what %Inh value has been reported?
output: 42

input: Suppose we examine the compound Cn1ccc2ncnc(Oc3ccc(NC(=O)Nc4cc(C(C)(C)C)on4)c(Cl)c3)c21 ; what %Inh value has been reported?
output: 10

input: Suppose we examine the compound CN1CCN(CCCNc2nccc(-c3c(-c4ccc(F)cc4)nn4cc(C(N)=O)ccc34)n2)CC1 ; what %Inh value has been reported?
output: 29

input: Suppose we examine the compound COc1cc2nccc(Nc3ccc(Oc4ccccc4)cc3)c2cc1OC.Cl ; what %Inh value has been reported?
output: 0

input: Suppose we examine the compound COC(=O)Nc1nc2cc(Oc3ccc(NC(=O)Nc4cc(C(F)(F)F)ccc4Cl)cc3)ccc2[nH]1.Cl ; what %Inh value has been reported?
output: 0

input: Suppose we examine the compound Cc1ccc(C(=O)Nc2ccc(Oc3ccc4nc(NC(=O)C5CC5)cn4c3)c(F)c2)c(=O)n1-c1ccccc1 ; what %Inh value has been reported?
output: 0

input: Suppose we examine the compound O=C(Nc1cccc(C(F)(F)F)c1)c1cccc(Oc2ccc3nccn3n2)c1 ; what %Inh value has been reported?
output: 0

input: Suppose we examine the compound Cc1ccc(CC(=O)N2CCc3cc(-c4cn(C)c5ncnc(N)c45)ccc32)cc1 ; what %Inh value has been reported?
output: 23

input: Suppose we examine the compound CCN1CCN(CCCC(=O)Nc2n[nH]c3nc(-c4ccc(O)cc4)c(Br)cc23)CC1 ; what %Inh value has been reported?
output: 0

---

# Test system: RET
# run-parameters: concentration: 1 μM,replicates: in singlicate; n = 1
quantity-kind: %Inh (%)
Return type: number; implicit unit %.

# compound, assay-system, endpoint-result
data = [
    ("CS(=O)c1ccc(-c2coc3ccc(-c4n[nH]c(=O)o4)cc23)cc1 (stereo not drawn)", "RET", 12),
    ("CC(=O)Nc1ccc(-c2cc3ncnc(SCC(=O)O)c3s2)cc1", "RET", 15),
    ("Cc1nnc(-c2ccc3occ(-c4ccc(S(C)=O)cc4)c3n2)o1 (stereo not drawn)", "RET", 0),
    ("O=C(Nc1n[nH]c2cc(-c3ccco3)ccc12)C1CC1 [SB-737447]", "RET", 0),
    ("CN(c1ccccc1CNc1nc(Nc2ccc3c(c2)CC(=O)N3)ncc1C(F)(F)F)S(C)(=O)=O", "RET", 87),
]

input: Suppose we examine the compound CS(=O)(=O)c1cccc(CNc2nc(Nc3ccc4c(c3)[C@@H]3C[C@@H]4CNC3=O)ncc2C(F)(F)F)c1 ; what %Inh value has been reported?
output: 100

input: Suppose we examine the compound C[C@@H]1CCN(C(=O)N2CCCC2)C[C@@H]1N(C)c1ncnc2[nH]ccc12 ; what %Inh value has been reported?
output: 41
